Kindly state HEMATOCRIT for each of the entries shown.
- Species on record: Rattus norvegicus
- assay.summary: DrugMatrix - Regimen: Daily Repeat
- Assay type: toxicity, organism-based, Sprague-Dawley
- Set-up: regimen Daily Repeat, gender Male, age 6-8 weeks
- particulars: in vivo, po, 0 mg/kg, 72 h, tissue Blood, route oral GAVAGE, dose level Control, time 3 day, […]
One number for each entry, in %.

Go through the list and state HEMATOCRIT for each entry.
1. CO[C@H]1/C=C/O[C@@]2(C)Oc3c(C)c(O)c4c(O)c(c(/C=N/N5CCN(C6CCCC6)CC5)c(O)c4c3C2=O)NC(=O)/C(C)=C\C=C\[C@H](C)[C@H](O)[C@@H](C)[C@@H](O)[C@@H](C)[C@H](OC(C)=O)[C@@H]1C
2. CC(C)(C)NC(=O)[C@H]1CC[C@H]2[C@@H]3CC[C@H]4NC(=O)C=C[C@]4(C)[C@H]3CC[C@]12C [FINASTERIDE]
3. COc1cc(N)c(Cl)cc1C(=O)NC1CCN(CCCOc2ccc(F)cc2)CC1OC (centres undefined) [CISAPRIDE]
4. Clc1ccc(COC(Cn2ccnc2)c2ccc(Cl)cc2Cl)cc1 (centres undefined)

[out]
1. 34.75
2. 31.63
3. 33.88
4. 33.7

----------
- Organism: Rattus norvegicus
- assay.summary: DrugMatrix - Regimen: Daily Repeat
- Format: toxicity, organism-based, Sprague-Dawley
- Parameters: regimen Daily Repeat, gender Male, age 6-8 weeks
- particulars: in vivo, po, 0 mg/kg, 72 h, tissue Blood, route oral GAVAGE, dose level Control, time 3 day, vehicle .5 % CMC
observed.property: ABSOLUTE MONOCYTE (CELLS/uL)
Numbers only, in CELLS/uL.

compound | units.label | recorded.result
CN(C)[C@@H]1C(O)=C(C(N)=O)C(=O)[C@@]2(O)C(O)=C3C(=O)c4c(O)ccc(Cl)c4[C@@](C)(O)[C@H]3C[C@@H]12 | CELLS/uL | 474
COC1=C(OC)C(=O)C(CCCCCCCCCCO)=C(C)C1=O | CELLS/uL | 183.17
O=C1CN=C(c2ccccc2Cl)c2cc([N+](=O)[O-])ccc2N1 | CELLS/uL | 183.17
C[C@H]1O[C@@H](n2cc(F)c(=O)[nH]c2=O)[C@H](O)[C@@H]1O | CELLS/uL | 183.17

GET /value?item= Cn1c(=O)c2c(ncn2CC(O)CO)n(C)c1=O (stereo not given) &field=ABSOLUTE MONOCYTE returns 474

----------
- Species: Rattus norvegicus
- assay.summary: DrugMatrix - Regimen: Daily Repeat
- Format: toxicity, organism-based, Sprague-Dawley
- Set-up: regimen Daily Repeat, gender Male, age 6-8 weeks
- particulars: in vivo, po, 0 mg/kg, 72 h, tissue Blood, route oral GAVAGE, dose level Control, time 3 day, vehicle .5 % CMC
observed.property: HEMATOCRIT (%)
Answers are plain numbers, in %.

I have 8 compounds here; please give me HEMATOCRIT for each one.
1. CN(C/C=C/C#CC(C)(C)C)Cc1cccc2ccccc12
2. O=C1Nc2ccc(Cl)cc2C(c2ccccc2Cl)=NC1O (centres undefined)
3. O=C1CN=C(c2ccccc2Cl)c2cc([N+](=O)[O-])ccc2N1
4. NCCCC(O)(P(=O)(O)O)P(=O)(O)O
5. Cn1c(=O)c2c(ncn2CC(O)CO)n(C)c1=O (centres undefined)
6. NC1CCN(c2nc3c(cc2F)c(=O)c(C(=O)O)cn3-c2ccc(F)cc2F)C1 (centres undefined)
7. O=C1C(CC[S+]([O-])c2ccccc2)C(=O)N(c2ccccc2)N1c1ccccc1 (centres undefined)
8. Clc1ccccc1CN1CCc2sccc2C1

[out]
[37.36, 34.75, 35.45, 36.94, 34.32, 37.36, 34.75, 36.94]

// COc1cc2nc(N3CCN(C(=O)c4ccco4)CC3)nc(N)c2cc1OC : HEMATOCRIT value = 34.75

----------
Exercise: for every item that follows, state its recorded ABSOLUTE MONOCYTE.
- Species on record: Rattus norvegicus
- assay.summary: DrugMatrix - Regimen: Daily Repeat
- Format: toxicity, organism-based, Sprague-Dawley
- Set-up: regimen Daily Repeat, gender Male, age 6-8 weeks
- particulars: in vivo, sc, 0 mg/kg, 72 h, tissue Blood, route subcutaneous, dose level Control, time 3 day, […]
One number for each entry, in CELLS/uL.

compound | observed.property | recorded.result
Oc1c(Cl)cc(Cl)c(Cl)c1Cc1c(O)c(Cl)cc(Cl)c1Cl | ABSOLUTE MONOCYTE | 389.67
CC(C)(C)CC(C)(C)c1ccc(OCCOCC[N+](C)(C)Cc2ccccc2)cc1.[Cl-] [BENZETHONIUM CHLORIDE] | ABSOLUTE MONOCYTE | 389.67
CCC(=O)O[C@]1(C(=O)CCl)[C@@H](C)C[C@H]2[C@@H]3CCC4=CC(=O)C=C[C@]4(C)[C@@]3(F)[C@@H](O)C[C@@]21C [CLOBETASOL PROPIONATE] | ABSOLUTE MONOCYTE | 261.5
O=C(Nc1ccc(Br)cc1)c1cc(Br)cc(Br)c1O | ABSOLUTE MONOCYTE | 261.5

Here is another compound to look at.
Input CCN(CC)CCOCCC1=CCC2CC1C2(C)C (stereo not given) . Output ABSOLUTE MONOCYTE: 56

----------
- Species on record: Rattus norvegicus
- assay.summary: DrugMatrix - Regimen: Daily Repeat
- Format: toxicity, organism-based, Sprague-Dawley
- Design: regimen Daily Repeat, gender Male, age 6-8 weeks
- particulars: in vivo, po, 1500 mg/kg, 72 h, tissue Blood, route oral GAVAGE, dose level High, time 3 day, vehicle .5 % CMC
observed.property: ABSOLUTE SEGMENTED NEUTROPHIL (CELLS/uL)
One number for each entry, in CELLS/uL.

These recorded examples may help you get a feel for the data.
compound | ABSOLUTE SEGMENTED NEUTROPHIL, CELLS/uL
CN(C)[C@@H]1C(O)=C(C(N)=O)C(=O)[C@@]2(O)C(O)=C3C(=O)c4c(O)ccc(Cl)c4[C@@](C)(O)[C@H]3C[C@@H]12 | 601.67
COC(=O)Nc1nc2ccc([S+]([O-])c3ccccc3)cc2[nH]1 (stereo not given) | 671.67
O=c1cnn([C@@H]2O[C@H](CO)[C@@H](O)[C@H]2O)c(=O)[nH]1 | 363.67

Please supply ABSOLUTE SEGMENTED NEUTROPHIL for each of the following items, keeping them in order.
1. CC(C)=CCC/C(C)=C/CO
2. CC(C)Oc1ccc2c(=O)c(-c3ccccc3)coc2c1

[out]
1. 1378.67
2. 2086.67

----------
Give ASPARTATE AMINOTRANSFERASE for every item shown.
- Species: Rattus norvegicus
- assay.summary: DrugMatrix - Regimen: Daily Repeat
- Format: toxicity, organism-based, Sprague-Dawley
- Parameters: regimen Daily Repeat, gender Male, age 6-8 weeks
- particulars: in vivo, po, 0 mg/kg, 72 h, tissue Plasma, route oral GAVAGE, dose level Control, time 3 day, vehicle .5 % CMC
Numbers only, in u/L.

molecule | ASPARTATE AMINOTRANSFERASE, u/L
CN(C)[C@@H]1C(O)=C(C(N)=O)C(=O)[C@@]2(O)C(O)=C3C(=O)c4c(O)ccc(Cl)c4[C@@](C)(O)[C@H]3C[C@@H]12 [CHLORTETRACYCLINE] | 86.5
NCCCC(O)(P(=O)(O)O)P(=O)(O)O [ALENDRONIC ACID] | 69.83
CCN(CC)CCOc1ccc(/C(=C(/Cl)c2ccccc2)c2ccccc2)cc1 [ENCLOMIPHENE] | 81.17
Cn1c(=O)c2c(ncn2CC(O)CO)n(C)c1=O (stereo not drawn) [DYPHYLLINE] | 86.5
C[C@H]1O[C@@H](n2cc(F)c(=O)[nH]c2=O)[C@H](O)[C@@H]1O [DOXIFLURIDINE] | 112.83
O=C1Nc2ccc(Cl)cc2C(c2ccccc2Cl)=NC1O (stereo not drawn) [LORAZEPAM] | 108.17

Batch request: ASPARTATE AMINOTRANSFERASE for each of the following molecules.
1. COc1cc2nc(N3CCN(C(=O)c4ccco4)CC3)nc(N)c2cc1OC [PRAZOSIN]
2. NC1CCN(c2nc3c(cc2F)c(=O)c(C(=O)O)cn3-c2ccc(F)cc2F)C1 (stereo not drawn) [TOSUFLOXACIN]

[out]
[108.17, 69.5]

Batch of 3 molecules: report ASPARTATE AMINOTRANSFERASE for each.
1. COC1=C(OC)C(=O)C(CCCCCCCCCCO)=C(C)C1=O [IDEBENONE]
2. CC(C(=O)O)c1ccc2oc(-c3ccc(Cl)cc3)nc2c1 (stereo not drawn) [BENOXAPROFEN]
3. CC(=O)Oc1ccc(C(c2ccc(OC(C)=O)cc2)c2ccccn2)cc1 [BISACODYL]

[out]
1: 112.83; 2: 78.33; 3: 66.17

Items follow; give ASPARTATE AMINOTRANSFERASE for each.
1. CNCCC(Oc1ccc(C(F)(F)F)cc1)c1ccccc1 (stereo not drawn) [FLUOXETINE]
2. O=C1C(CC[S+]([O-])c2ccccc2)C(=O)N(c2ccccc2)N1c1ccccc1 (stereo not drawn) [SULFINPYRAZONE]
3. CN/C(=N/CCSCc1nc[nH]c1C)NC#N [CIMETIDINE]
4. Clc1ccccc1CN1CCc2sccc2C1 [TICLOPIDINE]
5. COc1ccc(C2C(=O)c3ccccc3C2=O)cc1 [ANISINDIONE]
6. CN(C/C=C/C#CC(C)(C)C)Cc1cccc2ccccc12 [TERBINAFINE]
7. O=C1CN=C(c2ccccc2Cl)c2cc([N+](=O)[O-])ccc2N1 [CLONAZEPAM]

[out]
1: 63.17; 2: 108.17; 3: 112.83; 4: 69.83; 5: 69.83; 6: 69.5; 7: 112.83
